// provenance: paper PMC2241890

- measured_on: HU alpha-beta heterodimer (Escherichia coli, UniProt P0ACF0;P0ACF4 1-90;1-90)
- Sequence (P0ACF0 whole entry, chain 1 of 2): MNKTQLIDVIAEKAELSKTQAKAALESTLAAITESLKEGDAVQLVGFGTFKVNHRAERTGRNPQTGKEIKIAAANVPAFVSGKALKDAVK
- Sequence (P0ACF4 whole entry, chain 2 of 2): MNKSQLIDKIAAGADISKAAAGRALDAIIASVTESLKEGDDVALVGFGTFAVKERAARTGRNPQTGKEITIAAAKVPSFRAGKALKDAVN
- test_protocol: EMSA
Can you tell me pKd for the items I'm about to list?
Answers are plain numbers, as −log10 of the molar value.

mismatch 6 (dsDNA) DNA 1: AGTCTAGACTGCAGTTGAGTCCTTGCTAGGACGGATCCCT DNA 2: AGGGATCCGTCCTAGCAGATGTACAACTGCAGTCTAGACT; 8.22
mismatch 8 (dsDNA) DNA 1: AGTCTAGACTGCAGTTGAGTCCTTGCTAGGACGGATCCCT DNA 2: AGGGATCCGTCCTAGCTGATGTAGAACTGCAGTCTAGACT; 8.22

Now let's try a different one.
Q. Look at this binder and give its reported pKd. mismatch 10 (dsDNA) DNA 1: AGTCTAGACTGCAGTTGAGTCCTTGCTAGGACGGATCCCT DNA 2: AGGGATCCGTCCTAGTTGATGTAGCACTGCAGTCTAGACT
A. 8.22
